- assay.protocol: SK-BR-3 cell growth inhibitors, pilot screen, 24 h, human (AID 572);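 further: compound exposure lasted between 18 and 24 h rather than exactly 24 h; 100% = carrier-treated control wells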
- measurement.conditions: SK-BR-3 viability, CellTiter-Glo luminescence, at 10 µM, hits give low values
viability values, listed per item
endpoint.label: viability (%)

C=CC(O)(C#CCN(CC)CC)c1ccccc1 (stereo not given): 96.5
Cc1cc2oc(=O)cc(C)c2c(=O)o1: 101
COc1cc(OC)c(C2C(C#N)=C(N)OC3=C2C(=O)CC(C)(C)C3)cc1OC (stereo not given): 85.5
CCCN(CCC)S(=O)(=O)c1ccc(C(=O)Nc2nnc(-c3cccc(OC)c3)o2)cc1: 98.5
Cc1ccc(S(=O)(=O)CC(=O)N2CCCCCC2)cc1: 85.5

Data origin: PubChem BioAssay
